Test: EL4 T cell viability, ATP viability assay (ATPLite 1-step Luminescence)
Assay type: cell-based
Conditions: mouse; EL4 T cells, 12.5 µg/mL of agent
observed.property: viability at 12.5 µg/mL (%)
Answers are plain numbers, in %.

Identify measured viability at 12.5 µg/mL corresponding to C[C@@H]1O[C@@H](O[C@H]2[C@H](Oc3cc(O)c4c(c3)O[C@H](c3ccc(O)cc3)CC4=O)O[C@H](CO)[C@@H](O)[C@@H]2O)[C@H](O)[C@H](O)[C@H]1O [Naringin]
72.1

###

Experiment: EL4 T cell viability, ATP viability assay (ATPLite 1-step Luminescence)
Format: cell-based
Settings: mouse; EL4 T cells, 25 µg/mL of agent
observed.property: viability at 25 µg/mL (%)
One number for each entry, in %.

Identify measured viability at 25 µg/mL corresponding to "C[C@@H]1O[C@@H](O[C@H]2[C@H](Oc3cc(O)c4c(c3)O[C@H](c3ccc(O)cc3)CC4=O)O[C@H](CO)[C@@H](O)[C@@H]2O)[C@H](O)[C@H](O)[C@H]1O"
67

###

Assay: EL4 T cell viability, ATP viability assay (ATPLite 1-step Luminescence)
Format: cell-based
Conditions: mouse; EL4 T cells, 3.125 µg/mL of agent, % of untreated control
observed.property: viability at 3.125 µg/mL (%)
Give bare numbers, in %.

Identify measured viability at 3.125 µg/mL corresponding to C[C@@H]1O[C@@H](O[C@H]2[C@H](Oc3cc(O)c4c(c3)O[C@H](c3ccc(O)cc3)CC4=O)O[C@H](CO)[C@@H](O)[C@@H]2O)[C@H](O)[C@H](O)[C@H]1O [Naringin]
77

###

Test: EL4 T cell viability, ATP viability assay (ATPLite 1-step Luminescence)
Format: cell-based
Conditions: mouse; EL4 T cells, 50 µg/mL of agent
observed.property: viability at 50 µg/mL (%)
Numbers only, in %.

Identify measured viability at 50 µg/mL corresponding to C[C@@H]1O[C@@H](O[C@H]2[C@H](Oc3cc(O)c4c(c3)O[C@H](c3ccc(O)cc3)CC4=O)O[C@H](CO)[C@@H](O)[C@@H]2O)[C@H](O)[C@H](O)[C@H]1O [Naringin]
74.9

###

Assay: EL4 T cell viability, ATP viability assay (ATPLite 1-step Luminescence)
Format: cell-based
Details: mouse; EL4 T cells, 100 µg/mL of agent
observed.property: viability at 100 µg/mL (%)
Answers are plain numbers, in %.

Identify measured viability at 100 µg/mL corresponding to "C[C@@H]1O[C@@H](O[C@H]2[C@H](Oc3cc(O)c4c(c3)O[C@H](c3ccc(O)cc3)CC4=O)O[C@H](CO)[C@@H](O)[C@@H]2O)[C@H](O)[C@H](O)[C@H]1O"
80.3

###

Test: EL4 T cell viability, ATP viability assay (ATPLite 1-step Luminescence)
Assay type: cell-based
Settings: mouse; EL4 T cells, 200 µg/mL of agent
observed.property: viability at 200 µg/mL (%)
Give bare numbers, in %.

Identify measured viability at 200 µg/mL corresponding to "C[C@@H]1O[C@@H](O[C@H]2[C@H](Oc3cc(O)c4c(c3)O[C@H](c3ccc(O)cc3)CC4=O)O[C@H](CO)[C@@H](O)[C@@H]2O)[C@H](O)[C@H](O)[C@H]1O"
84.7

Reference source for all entries: patent US20220332742A1
